The values you see were collected from paper PMC6943125.

Molecular target: T1, DHX30N (human, UniProt Q7L2E3-3 1-152)
T1 sequence: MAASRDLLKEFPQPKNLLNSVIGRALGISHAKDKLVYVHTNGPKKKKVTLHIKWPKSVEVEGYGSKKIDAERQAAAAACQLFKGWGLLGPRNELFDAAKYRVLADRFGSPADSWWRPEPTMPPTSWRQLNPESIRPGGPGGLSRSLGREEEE
Test: fluorescence polarization; 30 nM RNA, pH 6.0 NMR buffer; EMSA: 50 mM Tris-HCl pH 7.5, 150 mM NaCl, 10% glycerol, on ice, 1% agarose 4 C; FP and NMR: pH 6.0 NMR buffer (composition not in material); Ni-NTA: 20 mM Na phosphate pH 6.6, 100 mM NaCl, 20 mM beta-mercaptoethanol, 1% glycerol, room temperature
Conditions: protein: recombinant; label: 5' FAM
pKd: −log10 of the molar value.
MEASUREMENT NAME: pKd

Incoming: What does the data say about its pKd? Entry: CCAUCCUCUACAGGCG (ssRNA) [16-nt sense ssRNA]
Outgoing: ~6.30
